assay: Acute Toxicity Test, mice; type: in vivo, mouse; settings: mouse, in vivo, po, intra gasteria, read-out: LD50 (95 % confidence limit)
measured metric: LD50 (mg/kg)
Reply numerically in mg/kg, unit not repeated.

Sample CCN1CC2(OC(=O)c3ccccc3NC(C)=O)CCC(OC)C34C1C(CC23)C1(O)CC(OC)C2CC4C1(O)C2OC (stereo not shown) [Lappaconitine] — what was its LD50?
32.4

---

experiment: Acute Toxicity Test, mice; type: in vivo, mouse; details: mouse, in vivo, sc, subcutaneous injection, read-out: LD50 (95 % confidence limit)
measured metric: LD50 (mg/kg)
Reply numerically in mg/kg, unit not repeated.

Sample CCN1CC2(OC(=O)c3ccccc3NC(C)=O)CCC(OC)C34C1C(CC23)C1(O)CC(OC)C2CC4C1(O)C2OC (stereo not shown) [Lappaconitine] — what was its LD50?
11.7
